FYI, the data here is from PubChem BioAssay AID1963857.

Reported IC50 is given for each of the following compounds.
- System: K24384-001-R-PDC KRAS patient-derived spheroid viability;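 further: spheroids exposed to agents for 7 days before readout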
- ASSAY_EXPLANATION: Anticancer human tumor K24384-001-R-PDC patient-derived pancreatic adenocarcinoma cell line growth inhibition [KRAS2]
- EXPERIMENTAL_SETUP: curve of first compound; second compound 1 µM; spheroids with HUVEC and MSC

Worked set:
Please fill in: IC50 reported for Cn1ncnc1[C@H]1c2n[nH]c(=O)c3cc(F)cc(c23)N[C@@H]1c1ccc(F)cc1 + C=CC(=O)N1CCN(c2nc(=O)n(-c3c(C)ccnc3C(C)C)c3nc(-c4c(O)cccc4F)c(F)cc23)C(C)C1 = > 100 nM

IC50 reading for Cn1ncnc1[C@H]1c2n[nH]c(=O)c3cc(F)cc(c23)N[C@@H]1c1ccc(F)cc1 + CNCc1ccccc1-c1csc(C(C)Nc2nc(C)nc3cc(OC)c(OC)cc23)c1 : > 100 nM

Further cases:
Data point: CCNC(=O)CC1N=C(c2ccc(Cl)cc2)c2cc(OC)ccc2-n2c(C)nnc21 (stereo not drawn) + CNCc1ccccc1-c1csc(C(C)Nc2nc(C)nc3cc(OC)c(OC)cc23)c1 ; IC50 = 1220 nM
